Assay system UniProtKB P08709; read-out recorded as IC50.
Structures can show the parent of a compound that is named as a salt.
endpoint name: IC50

[[record]]
compound = "CCOc1cc(OCC)cc(C(Nc2ccc(C(=N)N)cc2)c2nn(-c3ncccn3)c(=O)[nH]2)c1 (racemic) [Example 79, trifluoroacetate]"
endpoint_name = "IC50"
measured_result = "7.6 nM"

[[record]]
compound = "COc1cc(OCCN(C)C)cc(C(Nc2ccc(C(=N)N)cc2)c2nn(-c3ncccn3)c(=O)[nH]2)c1 (racemic) [Example 8, diacetate]"
endpoint_name = "IC50"
measured_result = "22.6 nM"

[[record]]
compound = "CCOc1cc(C(Nc2ccc(C(=N)N)cc2)c2nn(-c3ncccc3C)c(=O)[nH]2)ccc1OCCOC (stereo not drawn) [Example 128, acetate]"
endpoint_name = "IC50"
measured_result = "9.9 nM"


* * *

pIC50 tested on human clotting factor VIIa (Homo sapiens): recorded values
pIC50: −log10 of the molar value. Structures can show the parent of a compound that is named as a salt.
endpoint name: pIC50

[[record]]
compound = "COc1cc(F)c(C(Nc2ccc(C(=N)N)cc2)c2nn(-c3ccccc3N)c(=O)[nH]2)cc1OC (stereo not drawn) [Example 107, trifluoroacetate]"
endpoint_name = "pIC50"
measured_result = 8.37

[[record]]
compound = "COCCc1cc(C(Nc2ccc(C(=N)N)cc2)c2nn(-c3ncccn3)c(=O)[nH]2)cc(OC)c1OC (racemic) [Example 129, acetate]"
endpoint_name = "pIC50"
measured_result = 8.12

[[record]]
compound = "COc1cc(C(Nc2ccc(C(=N)N)cc2)c2nn(-c3ncccn3)c(=O)[nH]2)ccc1OCCF (racemic) [Example 81, acetate]"
endpoint_name = "pIC50"
measured_result = 7.73

[[record]]
compound = "COc1cc(OCCO)c(F)c(C(Nc2ccc(C(=N)N)c(F)c2)c2nn(-c3ncccn3)c(=O)[nH]2)c1 (racemic)"
endpoint_name = "pIC50"
measured_result = 7.28

[[record]]
compound = "CCOC(=O)c1cn[nH]c1-n1nc(C(Nc2ccc(C(=N)N)cc2)c2cc(OC)c3c(c2F)OCCO3)[nH]c1=O (stereo not drawn) [Example 197, trifluoroacetate]"
endpoint_name = "pIC50"
measured_result = 8.11

[[record]]
compound = "COc1ccc(C(Nc2ccc(C(=N)N)c(O)c2)c2nn(-c3ccccc3C(=O)O)c(=O)[nH]2)cc1OC (racemic)"
endpoint_name = "pIC50"
measured_result = 7.97


* * *

tested system: human clotting factor VIIa (Homo sapiens, UniProt P08709)
Construct: a human clotting factor VIIa (hereinafter, “Factor VIIa”) purified sample; purchased Enzyme Research Laboratories HFVIIa
Sequence (P08709 213-466 limits assumed): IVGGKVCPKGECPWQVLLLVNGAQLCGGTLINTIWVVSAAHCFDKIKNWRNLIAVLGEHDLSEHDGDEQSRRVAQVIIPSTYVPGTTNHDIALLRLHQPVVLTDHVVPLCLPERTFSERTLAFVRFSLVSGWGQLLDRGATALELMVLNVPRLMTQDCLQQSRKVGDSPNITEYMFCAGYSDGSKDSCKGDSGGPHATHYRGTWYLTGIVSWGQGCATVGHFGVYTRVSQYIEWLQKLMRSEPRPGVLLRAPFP
Sequence (P08709 61-212 limits assumed): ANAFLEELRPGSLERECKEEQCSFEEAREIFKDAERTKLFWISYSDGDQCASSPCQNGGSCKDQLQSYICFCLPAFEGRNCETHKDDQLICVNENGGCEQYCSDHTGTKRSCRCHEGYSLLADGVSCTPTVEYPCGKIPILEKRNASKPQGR
Sequence (P13726 33-295 partner): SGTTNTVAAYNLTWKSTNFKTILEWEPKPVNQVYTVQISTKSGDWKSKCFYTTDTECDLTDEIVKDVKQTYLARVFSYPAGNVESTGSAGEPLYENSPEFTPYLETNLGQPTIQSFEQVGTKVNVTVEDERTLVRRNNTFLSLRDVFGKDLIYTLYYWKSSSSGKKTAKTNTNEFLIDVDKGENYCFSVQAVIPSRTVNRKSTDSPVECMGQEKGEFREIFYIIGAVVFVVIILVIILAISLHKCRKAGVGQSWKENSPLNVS
protocol details: Inhibitory activity against clotting factor VIIa (chromogenic substrate Spectrozyme FVIIa, TF/Factor VIIa enzyme solution)
Type: biochemical
details: human Factor VIIa 5 nmol/L with human TF 10 nmol/L, room temperature 40 minutes, 405 nm
pIC50: −log10 of the molar value.
# pIC50 >= 8 gives Criterion met, anything below gives Criterion not met

[[record]]
compound = "COc1ccc(C(Nc2ccc(C(=N)N)cc2)c2nn(-c3ccccc3C(=O)O)c(=O)[nH]2)cc1OC (racemic) [Example 36, acetate]"
group_label = "Criterion met"

[[record]]
compound = "COc1cc(C(Nc2ccc(C(=N)N)cc2)c2nn(-c3ncccc3F)c(=O)[nH]2)cc2c1OCCCO2 (racemic) [Example 30, acetate]"
group_label = "Criterion met"

[[record]]
compound = "COc1cc(O)c(F)c(C(Nc2ccc(C(=N)N)cc2)c2nn(-c3ncccn3)c(=O)[nH]2)c1 (centres unmarked) [Example 224, acetate]"
group_label = "Criterion not met"

[[record]]
compound = "COc1cc(F)c(C(Nc2ccc(C(=N)N)c(F)c2)c2nn(-c3ncccn3)c(=O)[nH]2)cc1OC (racemic) [Example 143, acetate]"
group_label = "Criterion not met"

[[record]]
compound = "COc1cc(OCCF)cc(C(Nc2ccc(C(=N)N)cc2)c2nn(-c3ncccn3)c(=O)[nH]2)c1 (racemic) [Example 61, acetate]"
group_label = "Criterion met"

[[record]]
compound = "COc1cc(OCCCO)cc(C(Nc2ccc(C(=N)N)cc2)c2nn(-c3ncccn3)c(=O)[nH]2)c1 (racemic) [Example 158]"
group_label = "Criterion met"

[[record]]
compound = "COc1cc(C(Nc2ccc(C(=N)N)cc2)c2nn(-c3ncccn3)c(=O)[nH]2)c(F)c(OC)c1OC (racemic) [Example 67, acetate]"
group_label = "Criterion met"

[[record]]
compound = "COc1ccc(C(Nc2ccc(C(=N)N)cc2)c2nn(-c3ncccn3)c(=O)[nH]2)cc1OCCF (racemic) [Example 117, acetate]"
group_label = "Criterion not met"

[[record]]
compound = "COc1cc(C(Nc2ccc(C(=N)N)cc2)c2nn(-c3ncccn3)c(=O)[nH]2)cc(CC#N)c1OC (racemic) [Example 26, acetate]"
group_label = "Criterion met"

[[record]]
compound = "COc1cc(C(Nc2ccc(C(=N)N)cc2)c2nn(-c3ncccn3)c(=O)[nH]2)cc2c1OCCCO2 (racemic) [Example 156, acetate]"
group_label = "Criterion met"

